Source of measurements: ChEMBL document CHEMBL5724796

- measurementTarget: Transcription intermediary factor 1-alpha (Homo sapiens)
- experimentalConditions: Compound concentration 20.0 uM
Residues, ends and D or L forms follow the SMILES beside them. *: point of attachment. Cbz = O=C(OCc1ccccc1)*; CH2F = FC*
readout: ΔTm (°C)

INSERT INTO assay_data (compound, numericresult) VALUES
  ('Cc1nn(CC(F)(F)F)cc1Nc1ncc(Br)c(NCc2ccc(S(N)(=O)=O)cc2)n1', 1.38),
  ('CCc1c(C)nc(-c2ccc(Cl)s2)nc1Nc1ccc(CC(=O)O)cc1', 1.46),
  ('Nc1ccccc1NC(=O)CCCCCC(=O)Nc1ccccc1', -0.62),
  ('CCCC1O[C@@H]2C[C@H]3[C@@H]4CCC5=CC(=O)C=C[C@]5(C)[C@H]4[C@@H](O)C[C@]3(C)[C@]2(C(=O)CO)O1 (stereo partly specified)', -0.81),
  ('COC(=O)CC(NC(=O)C(C)NC(=O)C(NC(=O)C(CC(=O)OC)NC(=O)C(NC(=O)OCc1ccccc1)C(C)C)C(C)C)C(=O)CF (stereo unspecified) (Cbz-VD(OMe)VAD(OMe)-CH2F; configuration not given here)', -0.97),
  ('CC1C(C#N)=C(N)OC2=C1C(=O)CC(c1cccc3ccccc13)C2 (stereo unspecified)', -1.61),
  ('N[C@@H](CC(=O)N1CCN(C(c2ccc(F)cc2)c2ccc(F)cc2)CC1)C(=O)N1Cc2ccccc2C1', -6.21),
  ('CN(C)CCCNC(=O)c1ccc(-c2cc(O)c3ncccc3c2)cc1', 1.21),
  ('O=c1cc(-c2ccc(O)cc2)oc2c(CN3CCN(Cc4cccs4)CC3)c(O)cc(O)c12', 2.2),
  ('O=C(O)c1cccc(-c2ccc(-c3cn(C(=O)N4CCCCC4Cc4ccccc4)nn3)cc2)c1 (stereo unspecified)', -0.34),
  ('CCCOC(=O)N1CCN(C(=O)c2ccc3c(Cl)cc(-c4ccc(C5(N)CC5)cc4)nc3c2)C[C@H]1C', -3.45),
  ('COc1cc2c(cc1OC)[C@H]1C[C@@H](O)[C@H](CC(C)C)CN1CC2', 0.12),
  ('O=C(NCc1ccc(Cl)cc1)C1CCN(S(=O)(=O)c2cc(Cl)cc(Cl)c2)CC1', 0.02),
  ('Nc1ncnc2c1ncn2[C@@H]1O[C@H](C[C@@H](N)CC[C@H](N)C(=O)O)[C@@H](O)[C@H]1O', -0.73),
  ('C[C@H](NC(=O)CCc1nc2ccccc2c(=O)[nH]1)c1ccccc1', 0.31),
  ('CC(=O)N[C@@H](CCCCNC(=O)CSCCNC(=O)CCNC(=O)[C@H](O)C(C)(C)COP(=O)(O)OP(=O)(O)OC[C@H]1O[C@@H](n2cnc3c(N)ncnc32)[C@H](O)[C@@H]1OP(=O)(O)O)C(N)=O', 1.51),
  ('Cc1ccc(C)c(-n2sc3cc(F)ccc3c2=O)c1', 0),
  ('NS(=O)(=O)c1cc(-c2nnn[nH]2)c(NCc2cccs2)cc1Cl', 0),
  ('CCOc1ccc(Cc2cc([C@]34OC[C@](CO)(O3)[C@@H](O)[C@H](O)[C@H]4O)ccc2Cl)cc1', 1.7),
  ('Cc1ccnc(NS(=O)(=O)c2ccc(NC(=O)Nc3ccc(S(=O)(=O)Nc4nccc(C)n4)cc3)cc2)n1', 2.1),
  ('Cc1cc2cc(NS(=O)(=O)c3ccc(C#N)cc3)ccc2n(C)c1=O', 0.17),
  ('CCOc1ccc(Cc2cc([C@@H]3O[C@H](CO)[C@@H](O)[C@H](O)[C@H]3O)ccc2Cl)cc1', -0.07),
  ('Cc1n[nH]c(C)c1Cc1sc2c(c1C(=O)N1C[C@H](O)CO1)c(=O)n(C)c(=O)n2CC(C)C', 0.69),
  ('CCc1oc2ccccc2c1C(=O)c1cc(Br)c(O)c(Br)c1', 0),
  ('NCCOCCOCCNC(=O)Cc1ccc(Nc2nc(NCc3ccc(F)cc3)nc(NCC3CCCCC3)n2)cc1', -0.27),
  ('CC(C)(F)C[C@H](N[C@@H](c1ccc(-c2ccc(S(C)(=O)=O)cc2)cc1)C(F)(F)F)C(=O)NC1(C#N)CC1', -1.8),
  ('CC1(C)CC[C@]2(C(=O)O)CC[C@]3(C)C(=CC[C@@H]4[C@@]5(C)C=C(O)C(=O)C(C)(C)[C@@H]5CC[C@]43C)[C@@H]2C1', 0.88),
  ('COc1ccc(N2CCN(C(=O)c3cc4c(s3)-c3ccccc3S(=O)(=O)C4)CC2)cc1', 0.69),
  ('COc1cc2c(cc1-c1c(C)noc1C)[nH]c1nc(C)nc(-c3ccnc4ccccc34)c12', -0.1),
  ('CCCCCCNC(=O)n1cc(F)c(=O)[nH]c1=O', 0.05),
  ('COc1cc2c(cc1OC)[C@H]1C[C@@H](OC(=O)[C@@H](N)C(C)C)[C@H](CC(C)C)CN1CC2', 0.19),
  ('O=C(NCCCn1ccnc1)c1cc2nc(-c3ccccc3)cc(-c3ccccc3)n2n1', -0.04),
  ('O=C(C=Cc1ccc(O)cc1)c1ccc(O)cc1O', -0.03),
  ('CS(=O)(=O)c1ncn2c(NCc3c(F)ccc4c3CCO4)ncc(-c3ccc(C4CC4)nc3)c12', -0.37),
  ('Nc1cc(F)ccc1NC(=O)c1ccc(CNC(=O)/C=C/c2cccnc2)cc1', -1.2),
  ('CS(=O)(=O)N1CCN(C(=O)c2cnc3ccc(Cl)cc3c2-c2ccc(C3(C#N)CC3)cc2)CC1', -1.2);
